# assayed_system: gp140CN54 (subtype B'/C), gp140 envelope glycoprotein from the HIV-1 group M CRF07-B/C-clade isolate 97CN54 (HIV-1)
# assay_name: binding of purified VHH to gp140 CN54 (method not given)
reported_endpoint: K50 (50% binding concentration; column head reads KD) (µg/mL)

INSERT INTO measurements (binder, result_modifier, experimental_result) VALUES
  ('L8Cj3 Mutant 7 (VHH) VHH: EVQLVESGGGLVQAGGFLRLSCELRGSIFNQYAMAWFRQAPGKEREFVAGMGAVPHYGEFVKGRFTISRDNAKSTVYLQMSSLKPEDTAIYFCAASKSTYISYNSNGYDYWGRGTQVTVSS', '>', 100),
  ('L8Cj3 Mutant 6 (VHH) VHH: EVQLVESGGGLVQAGGFLRLSCELRGSIFNQYAMAWFRQAPGKEREFVAGMGAVPHYGEFVKGRFTISRDNAKSTVYLQMSSLKPEDTAIYYCARSKSTYISYNSNGYDYWGRGTQVTVSS', '=', 0.25);
